Method Notes: Solubility in pH 5.0 buffer
Format: physicochemical
Assay Metric: solubility (µg/mL)
Please give a number only; it is taken to be in µg/mL.

Entry under review: `COc1c(O)cc2c(c1O)[C@@H]1O[C@H](CO)[C@@H](O)[C@H](O)[C@H]1OC2=O` . Reported solubility?
1220

* * *

Method Notes: Partition coefficient, log P of the compound in water/n-octanol at pH 7.4 at 25 degC by HPLC method
Assay type: physicochemical
I would appreciate it if you labelled entries TRUE when logP is 1 or higher, otherwise FALSE.

In plain terms: is recorded logP at least 1 for `COc1c(OC(=O)c2ccccc2)cc2c(c1OC(=O)c1ccccc1)[C@@H]1O[C@H](COC(=O)c3ccccc3)[C@@H](O)[C@H](O)[C@H]1OC2=O` ?
TRUE

logP >= 1 for `COc1c(OC(C)=O)cc2c(c1OC(C)=O)[C@@H]1O[C@H](COC(C)=O)[C@@H](OC(C)=O)[C@H](O)[C@H]1OC2=O` ?
TRUE

Test whether the compound `COc1c(OC(=O)c2ccccc2C)cc2c(c1OC(=O)c1ccccc1C)[C@@H]1O[C@H](COC(=O)c3ccccc3C)[C@@H](OC(=O)c3ccccc3C)[C@H](O)[C@H]1OC2=O` records logP of 1 or higher.
TRUE

Quick check, logP >= 1? `COc1c(OC(=O)c2c(Cl)cc(Cl)cc2Cl)cc2c(c1O)[C@@H]1O[C@H](COC(=O)c3c(Cl)cc(Cl)cc3Cl)[C@@H](O)[C@H](O)[C@H]1OC2=O`
TRUE

Dear colleague, could you confirm whether `COc1c(OC(=O)c2ccc(C(C)(C)C)cc2)cc2c(c1OC(=O)c1ccc(C(C)(C)C)cc1)[C@@H]1O[C@H](COC(=O)c3ccc(C(C)(C)C)cc3)[C@@H](O)[C@H](O)[C@H]1OC2=O` has logP at or above 1?
FALSE

* * *

Method Notes: Solubility in water
Assay type: physicochemical
Assay Metric: solubility (mg/mL)
Note: unit mg/mL is implicit; provide only the numeric part.

Would you kindly share the measured solubility for `Nc1ncn([C@@H]2O[C@H](CO)[C@@H](O)[C@H]2O)c(=O)n1` ?
89

* * *

Method Notes: Solubility in pH 3.0 buffer
Format: physicochemical
Assay Metric: solubility (µg/mL)
All answers are understood in µg/mL, so give the number only.

Which solubility reading was recorded for the molecule COc1c(O)cc2c(c1O)[C@@H]1O[C@H](CO)[C@@H](O)[C@H](O)[C@H]1OC2=O [BERGENIN] ?
1080

* * *

Method Notes: Stability in pH 4.0 phosphate buffer assessed as compound remaining level at […] incubated for 24 hrs at 37 degC by HPLC method
Format: physicochemical
Condition Context: pH 4.0 phosphate buffer, pH 4; read-out: Stability
Assay Metric: remaining at 24 h (%)
Write the answer as a number in %, unit excluded.

Request the reported remaining at 24 h associated with `COc1c(OC(=O)c2ccc([N+](=O)[O-])cc2)cc2c(c1O)[C@@H]1O[C@H](COC(=O)c3ccc([N+](=O)[O-])cc3)[C@@H](O)[C@H](O)[C@H]1OC2=O`
45

Quick one: remaining at 24 h for `COc1c(OC(=O)c2c(Cl)cc(Cl)cc2Cl)cc2c(c1O)[C@@H]1O[C@H](COC(=O)c3c(Cl)cc(Cl)cc3Cl)[C@@H](O)[C@H](O)[C@H]1OC2=O` ?
76

Record request: remaining at 24 h value, item COc1c(OC(C)=O)cc2c(c1OC(C)=O)[C@@H]1O[C@H](COC(C)=O)[C@@H](OC(C)=O)[C@H](OC(C)=O)[C@H]1OC2=O [BERGENIN PENTAACETATE]
119

Record request: remaining at 24 h value, item `COc1c(OC(=O)c2ccc(C(C)(C)C)cc2)cc2c(c1OC(=O)c1ccc(C(C)(C)C)cc1)[C@@H]1O[C@H](COC(=O)c3ccc(C(C)(C)C)cc3)[C@@H](OC(=O)c3ccc(C(C)(C)C)cc3)[C@H](OC(=O)c3ccc(C(C)(C)C)cc3)[C@H]1OC2=O`
104

Looking for the measured remaining at 24 h of `COc1c(O)cc2c(c1O)[C@@H]1O[C@H](CO)[C@@H](O)[C@H](O)[C@H]1OC2=O` , can you help?
102

Which remaining at 24 h reading was recorded for the molecule `COc1c(OCc2ccccc2)cc2c(c1OCc1ccccc1)[C@@H]1O[C@H](CO)[C@@H](O)[C@H](O)[C@H]1OC2=O` ?
52.4

Would you mind telling me what remaining at 24 h value was observed for `COc1c(OC(=O)c2ccc(C(C)(C)C)cc2)cc2c(c1OC(=O)c1ccc(C(C)(C)C)cc1)[C@@H]1O[C@H](COC(=O)c3ccc(C(C)(C)C)cc3)[C@@H](O)[C@H](O)[C@H]1OC2=O` ?
95

All values here come from ChEMBL document CHEMBL4043202.
